EC50 values, listed per item
- Target under test: hTA1 W264F (Homo sapiens, UniProt Q96RJ0, W264F)
- Construct: expressed in transfected cells; host or cells: HEK293T
- Sequence (Q96RJ0 whole entry W264F): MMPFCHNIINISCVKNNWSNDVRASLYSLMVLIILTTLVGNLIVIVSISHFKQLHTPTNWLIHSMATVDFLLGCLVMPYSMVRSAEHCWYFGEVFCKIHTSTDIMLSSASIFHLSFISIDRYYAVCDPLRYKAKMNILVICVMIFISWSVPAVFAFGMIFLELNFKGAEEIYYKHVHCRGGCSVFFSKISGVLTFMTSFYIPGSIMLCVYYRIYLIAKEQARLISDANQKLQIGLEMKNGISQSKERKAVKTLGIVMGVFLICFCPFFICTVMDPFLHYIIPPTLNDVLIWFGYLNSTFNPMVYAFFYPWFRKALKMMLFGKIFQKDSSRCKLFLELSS
- Experiment notes: GloSensor cAMP accumulation assay, W264F mutant;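 further: cells transiently transfected with receptor plus GloSensor, luminescence read 30 min after agonist addition at room temperature, concentration-response curves fitted by log(agonist) vs response regression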
- Format: cell-based
- Condition parameters: W264F; n=2; read-out: EC50
Observation type: EC50 (µM)

> print(dat)
                                   compound  observation.type  result
1              NCCc1ccc(Oc2ccc(O)cc2)c(I)c1              EC50    11.3
2  CN1CC2c3ccccc3Oc3ccc(Cl)cc3C2C1 (stereo not shown)              EC50    9.43
3                            NCCc1ccc(O)cc1              EC50    10.3
4                               NCCc1ccccc1              EC50    2.49
